Examples of compounds with documented IC50 follow.
Test system: HT-29
Assay: Antiproliferative activity against human HT-29 cells assessed as cell growth inhibition after 48 hrs by sulforhodamine B assay
Type: functional, cell-based
Details: HT-29, 48 h
Result type: IC50 (µM)

1. COc1cc(/C=C\c2ccc(N3CCNC3=O)cc2)cc(OC)c1OC ... 0.0017
2. CCNC(=O)Nc1ccc(/C=C\c2cc(OC)c(OC)c(OC)c2)cc1 ... 21
3. O=C1NCCN1c1ccc(/C=C\c2cccc(Cl)c2)cc1 ... 0.025
4. COc1ccc(/C=C\c2cc(OC)c(OC)c(OC)c2)cc1O ... 0.56
5. CCNC(=O)Nc1ccc(/C=C\c2cccc(Cl)c2)cc1 ... 26
6. Cc1cc(C)cc(/C=C/c2ccc(NC(=O)NCCCl)cc2)c1 ... 11
7. O=C1NCCN1c1ccc(/C=C/c2cccc(Cl)c2)cc1 ... 17
8. Cc1cc(C)cc(/C=C\c2ccc(NC(=O)NCCCl)cc2)c1 ... 0.51
9. COc1cc(/C=C\c2ccc(NC(=O)NCCCl)cc2)cc(OC)c1OC ... 0.68
10. CCNC(=O)Nc1ccc(/C=C\c2cc(C)cc(C)c2)cc1 ... 11
11. CCNC(=O)Nc1ccc(/C=C/c2cc(OC)c(OC)c(OC)c2)cc1 ... 12
12. COc1cc(/C=C/c2ccc(N3CCNC3=O)cc2)cc(OC)c1OC ... 0.37
13. Cc1cc(C)cc(/C=C/c2ccc(N3CCNC3=O)cc2)c1 ... 14
14. COc1cc(/C=C/c2ccc(NC(=O)NCCCl)cc2)cc(OC)c1OC ... 9.5
15. Cc1cc(C)cc(/C=C\c2ccc(N3CCNC3=O)cc2)c1 ... 0.0084
16. O=C(NCCCl)Nc1ccc(/C=C/c2cccc(Cl)c2)cc1 ... 12
17. O=C(NCCCl)Nc1ccc(/C=C\c2cccc(Cl)c2)cc1 ... 0.13

The origin of these recorded values is ChEMBL document CHEMBL3588763.
